method.description: In vitro microsomal stability, rat
Format: in vitro ADME
condition.notes: Rat Microsome, same batch, 30 min
Exam item: assign Criterion met to entries whose Microsomal stability, % remaining is below 70% and Criterion not met to entries at or above 70%. Note that a value of exactly 70% receives Criterion not met.

{"columns": ["compound", "class.assignment"],
 "data": [
  ["CC(C)(C)C[C@H]1N[C@@H](C(=O)NCCC(C)(O)CO)[C@H](c2cccc(Cl)c2)[C@@]12C(=O)Nc1cc(Cl)c(F)cc12 (some centres unmarked) [MI-758]", "Criterion not met"]
]}

## Input Consider CC(O)C(O)CCNC(=O)[C@@H]1N[C@H](CC(C)(C)C)[C@]2(C(=O)Nc3cc(Cl)c(F)cc32)[C@H]1c1cccc(Cl)c1 (some centres unmarked) [MI-519-31] . Does its Microsomal stability, % remaining lie strictly below 70%?
## Output Criterion met
